Consider the following compounds; for each one, report its Ki.
Target: Carbonic anhydrase 2 (Homo sapiens)
Assay: Inhibition of human recombinant carbonic anhydrase 2 expressed in Escherichia coli by stopped flow CO2 hydration assay
Reply with just the number (in nM).

Query: Sample `C/C(=N\Nc1ccc(S(N)(=O)=O)cc1)c1ccc(N2CCOCC2)cc1` — what was its Ki?
Response: 65.6

Query: Fill blank: measured Ki of the compound `C/C(=N\Nc1ccc(S(N)(=O)=O)cc1)c1ccc(N2CCN(C)CC2)cc1` is ____.
Response: 89.5

Query: // returns reported Ki for input `C/C(=N\Nc1ccc(S(N)(=O)=O)cc1)c1ccc(N2CCCCC2)cc1`
Response: 69.2

Query: Please look up its Ki: `NS(=O)(=O)c1ccc(C(=O)N/N=C/c2ccc(-n3ccnc3)cc2)cc1`
Response: 8.2

Query: What value of Ki has been recorded for this entry: `NS(=O)(=O)c1ccc(C(=O)N/N=C/c2ccc(N3CCCCC3)cc2)cc1`
Response: 9.3

Query: Sample `NS(=O)(=O)c1ccc(C(=O)N/N=C/c2ccc(-n3nnc4ccccc43)cc2)cc1` — what was its Ki?
Response: 62.3

Query: May I ask what Ki has been recorded for `NS(=O)(=O)c1ccc(N/N=C/c2ccc(-n3nnc4ccccc43)cc2)cc1` ?
Response: 94.6

Query: What Ki value was documented for this compound, `NS(=O)(=O)c1ccc(C(=O)N/N=C/c2ccc(N3CCOCC3)cc2)cc1` ?
Response: 15.6

Query: Entry under review: `NS(=O)(=O)c1ccc(N/N=C/c2ccc(N3CCCC3)cc2)cc1` . Reported Ki?
Response: 29.9

Query: Sample `NS(=O)(=O)c1ccc(C(=O)N/N=C/c2ccc(N3CCCC3)cc2)cc1` — what was its Ki?
Response: 12.5

Query: Requested read-out: Ki. Entry: `C/C(=N\Nc1ccc(S(N)(=O)=O)cc1)c1ccc(N2CCCC2)cc1`
Response: 57.7

Query: Quick one: Ki for `NS(=O)(=O)c1ccc(N/N=C/c2ccc(-n3ccnc3)cc2)cc1` ?
Response: 17.9

Query: Please give the measured Ki for this compound: `NS(=O)(=O)c1ccc(N/N=C/c2ccc(N3CCCCC3)cc2)cc1`
Response: 24

Query: Entry under review: `NS(=O)(=O)c1ccc(N/N=C/c2ccc(N3CCOCC3)cc2)cc1` . Reported Ki?
Response: 34.5

* * *

Give pKi for every item shown.
Target: Carbonic anhydrase 1 (Homo sapiens)
Sequence (P00915 whole entry): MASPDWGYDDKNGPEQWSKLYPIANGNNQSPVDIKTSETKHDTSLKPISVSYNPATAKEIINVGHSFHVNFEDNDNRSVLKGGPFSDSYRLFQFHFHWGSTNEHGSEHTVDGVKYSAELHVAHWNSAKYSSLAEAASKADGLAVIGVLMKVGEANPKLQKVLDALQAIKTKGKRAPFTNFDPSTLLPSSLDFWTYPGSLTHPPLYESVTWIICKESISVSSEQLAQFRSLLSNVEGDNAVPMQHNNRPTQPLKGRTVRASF
Assay: Inhibition of human recombinant carbonic anhydrase 1 expressed in Escherichia coli by stopped flow CO2 hydration assay
As a rule, pKi stands for the negative log10 of the concentration, concentration in M.

Query: Entry `NS(=O)(=O)c1ccc(N/N=C/c2ccc(N3CCOCC3)cc2)cc1` : reported pKi = ?
Response: 7.06

Query: Requested read-out: pKi. Entry: `NS(=O)(=O)c1ccc(N/N=C/c2ccc(N3CCCCC3)cc2)cc1`
Response: 7.00

Query: Record request: pKi value, item `NS(=O)(=O)c1ccc(N/N=C/c2ccc(-n3ccnc3)cc2)cc1`
Response: 7.11

Query: Request the reported pKi associated with `C/C(=N\Nc1ccc(S(N)(=O)=O)cc1)c1ccc(N2CCN(C)CC2)cc1`
Response: 6.57

Query: Field request: pKi | item: `NS(=O)(=O)c1ccc(N/N=C/c2ccc(-n3nnc4ccccc43)cc2)cc1`
Response: 6.62

Query: I have this compound here, `NS(=O)(=O)c1ccc(C(=O)N/N=C/c2ccc(N3CCCCC3)cc2)cc1` , and I need its recorded pKi.
Response: 6.82

Query: Requested read-out: pKi. Entry: `NS(=O)(=O)c1ccc(C(=O)N/N=C/c2ccc(-n3nnc4ccccc43)cc2)cc1`
Response: 6.45

Query: What measured pKi goes with `NS(=O)(=O)c1ccc(C(=O)N/N=C/c2ccc(-n3ccnc3)cc2)cc1` ?
Response: 6.89

Query: Could you share which pKi value was measured for `C/C(=N\Nc1ccc(S(N)(=O)=O)cc1)c1ccc(N2CCCCC2)cc1` ?
Response: 6.96

Query: If you can, please state the reported pKi value of `NS(=O)(=O)c1ccc(C(=O)N/N=C/c2ccc(N3CCOCC3)cc2)cc1` .
Response: 6.76
